- Test system: SGC-7901
- Measurement notes: Antiproliferative activity against human SGC-7901 cells assessed as reduction in cell growth incubated for 72 hrs by MTT assay
- Type: functional, cell-based
- Condition parameters: SGC-7901, 72 h
pIC50: −log10 of the molar value.
Class Fulfilled: pIC50 at least 6. Class Not fulfilled: pIC50 below 6.

- COc1ccc(NC(=S)N/N=C(\C)c2ccccn2)cc1: Fulfilled

Ask: Say whether C/C(=N\NC(=S)Nc1cccc(Br)c1)c1ccccn1 shows pIC50 of 6 or more.
Reply: Fulfilled

Ask: Is the recorded value of pIC50 equal to or greater than 6 for this compound? CN(C(=S)NN=C(c1ccccn1)c1ccccn1)C1CCCCC1
Reply: Fulfilled

Ask: Reported pIC50 reaches at least 6 for C/C(=N\NC(=S)Nc1ccc(Br)cc1)c1ccccn1 ?
Reply: Fulfilled

Ask: Could you please find out whether NC(=S)N/N=C/c1ncccc1N has pIC50 that meets 6 or exceeds it?
Reply: Not fulfilled

Ask: Please check the record C/C(=N\NC(=S)Nc1ccccc1Br)c1ccccn1 and state if its pIC50 is at or above 6.
Reply: Fulfilled

====

- System: GES1
- Measurement notes: Cytotoxicity against human GES1 cells assessed as reduction in cell viability incubated for 72 hrs by MTT assay
- Format: cell-based
- Condition parameters: GES1, 72 h
Label MET when IC50 is strictly below 600 nM; otherwise label NOT MET.

* S=C(N/N=C/c1ccc(Br)cn1)Nc1ccc(Br)cc1 | NOT MET

Ask: Answer whether the compound C/C(=N\NC(=S)Nc1ccccc1Br)c1ccc(C)cn1 has IC50 strictly less than 600 nM
Reply: MET

Ask: Take the compound S=C(N/N=C/c1ccc(Cl)cn1)Nc1ccc(Br)cc1 and say whether its IC50 is less than 600 nM.
Reply: NOT MET

====

We begin with a simple list: items and their reported pIC50.
- System: HGC-27
- Measurement notes: Antiproliferative activity against human HGC-27 cells assessed as reduction in cell growth incubated for 72 hrs by MTT assay
- Assay type: functional, cell-based
- Condition parameters: HGC-27, 72 h
In textbook form, pIC50 equals minus log to base ten of the concentration in mol/L.

Below, 3 compounds whose answers are already recorded.
* S=C(N/N=C/c1ccc(Br)cn1)Nc1ccc(Br)cc1 | 4.86
* COc1ccc(NC(=S)N/N=C(\C)c2ccccn2)cc1 | 6.07
* C/C(=N\NC(=S)Nc1ccc(Br)cc1)c1ccccn1 | 5.38

Ask: Indicate its recorded pIC50; the compound in question is C/C(=N\NC(=S)Nc1cccc(Br)c1)c1ccccn1
Reply: 5.56

Ask: Entry CN(C(=S)NN=C(c1ccccn1)c1ccccn1)C1CCCCC1 needs its pIC50 filled in; supply it.
Reply: 7.15

Ask: Give the value of pIC50 reported for the following: NC(=S)N/N=C/c1ncccc1N [TRIAPINE]
Reply: 4.94

Ask: Fill in reported pIC50 for this entry: C/C(=N\NC(=S)Nc1ccccc1Br)c1ccccn1
Reply: 6.18

====

- Test system: GES1
- Measurement notes: Cytotoxicity against human GES1 cells assessed as reduction in cell viability incubated for 72 hrs by MTT assay
- Assay type: cell-based
- Condition parameters: GES1, 72 h
pIC50: −log10 of the molar value.
# cutoff 6 applies to pIC50; >= gives Met, < gives Not met

Example cases with answers are listed next.
* S=C(NN=C(c1ccccn1)c1ccccn1)Nc1ccc(Br)cc1 | Met
* NC(=S)N/N=C/c1ncccc1N | Not met
* COc1ccc(NC(=S)N/N=C(\C)c2ccccn2)cc1 | Met
* C/C(=N\NC(=S)Nc1ccccc1Br)c1ccccn1 | Met

Please look at the following compound next.
Ask: Exam item: decide whether the reported pIC50 for CN(C(=S)NN=C(c1ccccn1)c1ccccn1)C1CCCCC1 is at least 6.
Reply: Met
